The measurements presented in this section are drawn from the supplement of paper PMC10567573.

B1: C10orf62 (parent)
chain: MLWVQRKRRRKETSECPSDKDKSP

# Variants of: B1
# test summary: protein stability index of a GFP-peptide fusion (GPS, HEK-293T) (PSI 1-6); higher = more stable;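 note: lentivirally expressed fusions sorted by FACS into six bins by GFP to DsRed ratio, PSI derived from sequencing read proportions per bin multiplied by bin number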
# measurement setup: c terminus: a fixed tail appended
Decide using protein stability index: a value greater than or equal to 3 is YES, a smaller one is NO.

[Q] Is protein stability index for K20C at or above 3?
[A] YES

[Q] Reported protein stability index reaches at least 3 for M1L ?
[A] NO

[Q] Given C16P , state whether its protein stability index is at least 3.
[A] NO

[Q] Has P17R a recorded protein stability index greater than or equal to 3?
[A] NO

[Q] Please tell me: is the variant C16R at or over 3 in terms of protein stability index?
[A] YES

[Q] Determine whether this variant has protein stability index no lower than 3: D19L
[A] NO

[Q] Can S14I be said to have protein stability index at or above 3?
[A] NO

[Q] Is it the case that S18W has protein stability index reaching or exceeding 3?
[A] NO

[Q] Is it the case that P24K has protein stability index reaching or exceeding 3?
[A] NO

[Q] protein stability index >= 3 for V4N ?
[A] YES

[Q] Please indicate if the recorded protein stability index for T13Y meets or exceeds 3.
[A] NO

[Q] # check: protein stability index of S23A is greater than or equal to 3
[A] YES

[Q] Reported protein stability index reaches at least 3 for V4E ?
[A] YES

[Q] In plain terms: is recorded protein stability index at least 3 for R10H ?
[A] YES

[Q] Hi team, for Q5M , is the recorded protein stability index at or above 3?
[A] NO

[Q] Textbook exercise: given the entry W3P , state whether its protein stability index is greater than or equal to 3.
[A] YES

[Q] Say whether R8G shows protein stability index of 3 or more.
[A] YES

[Q] Is reported protein stability index greater than or equal to 3 here: K22D
[A] NO

[Q] In plain terms: is recorded protein stability index at least 3 for R10C ?
[A] NO

[Q] Could you please find out whether E12R has protein stability index that meets 3 or exceeds it?
[A] YES

[Q] Confirm if protein stability index reported for the variant R10S is 3 or above.
[A] YES

[Q] Is the recorded value of protein stability index equal to or greater than 3 for this variant? K20P
[A] YES

[Q] Hi, just wondering whether W3L shows protein stability index of 3 or higher.
[A] YES

[Q] I'd appreciate it if you could say whether V4P has protein stability index at least equal to 3.
[A] YES

[Q] Answer whether protein stability index of S23H is greater than or equal to 3.
[A] NO

[Q] Tell me whether protein stability index is at least 3 here: S23E
[A] NO

[Q] Is the recorded value of protein stability index equal to or greater than 3 for this variant? W3N
[A] YES

[Q] Check if protein stability index >= 3 (inclusive). Item: W3Q
[A] YES

[Q] Is it the case that R6G has protein stability index reaching or exceeding 3?
[A] YES

[Q] Could you verify whether the entry K11I shows protein stability index of no less than 3?
[A] NO

[Q] Please indicate if the recorded protein stability index for R8K meets or exceeds 3.
[A] YES

[Q] Please tell me: is the variant D19C at or over 3 in terms of protein stability index?
[A] NO

[Q] Hello, I need to know if W3R has measured protein stability index not below 3. Thanks!
[A] YES

[Q] Assess whether reported protein stability index for S18G sits at 3 or higher.
[A] YES

[Q] Hello, I need to know if K22N has measured protein stability index not below 3. Thanks!
[A] YES

[Q] Answer whether protein stability index of P17D is greater than or equal to 3.
[A] NO

[Q] In plain terms: is recorded protein stability index at least 3 for C16K ?
[A] YES

[Q] Hello, I need to know if D19S has measured protein stability index not below 3. Thanks!
[A] NO
